As shown below, each of these compounds has a reported IC50 value.
# System Name: human dihydroorotate dehydrogenase (HsDHODH) (Homo sapiens, UniProt Q02127)
# Construct: made in house
# Sequence (Q02127 whole entry): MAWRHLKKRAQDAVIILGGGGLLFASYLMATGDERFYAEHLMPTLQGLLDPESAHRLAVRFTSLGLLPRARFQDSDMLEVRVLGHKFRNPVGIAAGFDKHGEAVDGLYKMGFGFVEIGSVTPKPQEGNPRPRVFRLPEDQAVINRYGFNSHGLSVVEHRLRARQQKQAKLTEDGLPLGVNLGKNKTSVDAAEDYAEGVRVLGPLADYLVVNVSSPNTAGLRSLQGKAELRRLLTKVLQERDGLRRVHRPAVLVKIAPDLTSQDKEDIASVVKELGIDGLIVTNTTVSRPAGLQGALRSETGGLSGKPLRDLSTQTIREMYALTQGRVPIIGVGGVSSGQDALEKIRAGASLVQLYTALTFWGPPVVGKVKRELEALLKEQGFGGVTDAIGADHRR
# Assay Name: Inhibition of recombinant human DHODH enzyme activity
# Format: biochemical
# Test Settings: recombinant human DHODH; purified enzyme fixed at 10 nM; read-out: IC50 (nM), inhibition of human DHODH
Respond with the bare value in nM.

- Compound: "C/C(=C\\Cc1c(O)c(Cl)c(C)c(C=O)c1O)CC/C=C(\\C)C(C)O (stereo not shown)"
  System Name: "human dihydroorotate dehydrogenase (HsDHODH) (Homo sapiens, UniProt Q02127)"
  Unit String: "nM"
  IC50: 63.9

stdin: What value of IC50 has been recorded for this entry: CC(C)=CCC/C(C)=C/Cc1c(O)c(Cl)c(C)c(C=O)c1O
stdout: 74.1

----------
As shown below, each of these compounds has a reported GI50 value.
# Test system: MKN45
# Assay Name: 39-cancer cell panel assay: MKN45
# Assay type: cell-based
# Test Settings: Homo sapiens, MKN-45, St
Respond with the bare value in µM.

stdin: What value of GI50 has been recorded for this entry: C/C(=C\Cc1c(O)c(Cl)c(C)c(C=O)c1O)CC/C=C(\C)C(C)O (stereo not drawn)
stdout: 65

stdin: What value of GI50 has been recorded for this entry: C/C(=C\COC(=O)C(C)C)CC/C(C)=C/Cc1c(O)c(Cl)c(C)c(C=O)c1O
stdout: 24

stdin: What value of GI50 has been recorded for this entry: C/C(=C\Cc1c(O)c(Cl)c(C)c(C=O)c1O)CC/C=C(\C)[C@@H]1CC(=O)C(C)(C)O1
stdout: 10

stdin: What value of GI50 has been recorded for this entry: CC(C)=CCC/C(C)=C/CC/C(C)=C/Cc1c(O)c(Cl)c(C)c(C=O)c1O
stdout: 6.4

stdin: What value of GI50 has been recorded for this entry: CC(=O)OC(C)/C(C)=C/CC/C(C)=C/Cc1c(O)c(Cl)c(C)c(C=O)c1O (stereo not drawn)
stdout: 20

stdin: What value of GI50 has been recorded for this entry: COC(=O)/C(C)=C/CC/C(C)=C/Cc1c(O)c(Cl)c(C)c(C=O)c1O
stdout: 14

----------
# System Name: Complex III (Bos taurus, UniProt P00157)
# Construct: from tissue; host or cells: bovine mitochondrial fraction / sub-mitochondrial particles
# Assay Name: Quinol oxidase (complex III) activity, bovine mitochondria
# Assay type: biochemical
# Test Settings: ubiquinol oxidase activity
Quantity Kind: inhibition at 5 µM (%)
Respond with the bare value in %.

// worked examples, inhibition at 5 µM included
- Compound: "COc1[nH]c(=O)c(C(=O)[C@@H](C)C[C@H](C)[C@@H](Cl)CCl)c(O)c1OC [Atpenin A5, reference compound]"
  System Name: "Complex III (Bos taurus, UniProt P00157)"
  inhibition at 5 µM (%): 0
- Compound: "C=C(C)[C@H]1Cc2c(ccc3c2O[C@@H]2COc4cc(OC)c(OC)cc4[C@@H]2C3=O)O1 [Rotenone, reference compound]"
  System Name: "Complex III (Bos taurus, UniProt P00157)"
  inhibition at 5 µM (%): 1.1

stdin: What value of inhibition at 5 µM has been recorded for this entry: C/C(=C\Cc1c(O)c(Cl)c(C)c(C=O)c1O)CC/C=C(\C)[C@@H]1CC(=O)C(C)(C)O1 [Compound 1, ascofuranone]
stdout: 36

stdin: What value of inhibition at 5 µM has been recorded for this entry: CC(/C=C/[C@@]1(C)[C@H](C)CCC(=O)[C@@H]1C)=C\Cc1c(O)c(Cl)c(C)c(C=O)c1O [Compound 10, Ascochlorin]
stdout: 94
